Kindly supply the reported log DO/PBS pH7.4 values for the records listed here.
test: Lipophilicity, shake-flask method (n-octanol/PBS pH 7.4); assay type: physicochemical
Where no end group is shown, it is not given here. [ ]: non-standard residue; d: D form. The star is where a group is joined. DOTA = O=C(O)CN1CCN(CC(=O)O)CCN(CC(=O)*)CCN(CC(=O)O)CC1
Please reply with the number alone, leaving off any unit.

Name the recorded log DO/PBS pH7.4 of the item [^177Lu]Lu-DOTA-K-JM#29: ^177Lu-labeled DOTA-K-JM #29 (SEQ ID NO.: 165) ([dL]LRWSRKMPCVSK(DOTA); also: 177Lu complex of DOTA) in your answer.
−1.49

Name the recorded log DO/PBS pH7.4 of the item [^177Lu]Lu-DOTA-JM#118: ^177Lu-labeled DOTA-JM #118 (SEQ ID NO.: 166) (ILRWSRK(DOTA)-NH2; also: 177Lu complex of DOTA) in your answer.
−3.12

Name the recorded log DO/PBS pH7.4 of the item [^177Lu]Lu-DOTA-K-JM#21: ^177Lu-labeled DOTA-K-JM #21 (SEQ ID NO.: 101) (ILRWSRKLPCVSK(DOTA); also: 177Lu chelated) in your answer.
−1.91

Name the recorded log DO/PBS pH7.4 of the item [^177Lu]Lu-DOTA-K-JM#122: ^177Lu-labeled DOTA-K-JM #122 (SEQ ID NO.: 102) (ILRWSRKLPSVSK(DOTA); also: 177Lu complex of DOTA) in your answer.
−3.23
